# Protocol: NCI Yeast Anticancer Drug Screen. Data for the cln2 rad14 strain (AID 165);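 note: 0% = growth equal to vehicle treated cultures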
# Reported conditions: S. cerevisiae cln2 rad14 strain, at 50.0 µM, stronger effect = higher value
Compounds without any hit were thinned out: in the full panel of roughly 79,000, 15% have a hit.
Known growth inhibition of a selection of compounds

Compound: Cc1cccc(Cl)c1OP(=O)(Oc1c(C)cccc1Cl)Oc1c(C)cccc1Cl
Measurement unit: %
growth inhibition: -19.3

Compound: CCC(C)(Cl)c1ccccc1 (centres undefined)
Measurement unit: %
growth inhibition: -0.4

Compound: COc1cc(C2(C)CCCCC2)c(OC)cc1C1(C)CCCCC1
Measurement unit: %
growth inhibition: -69.2

Compound: O=C(Nc1ccc(N(CCCl)CCCl)cc1)c1ccc([N+](=O)[O-])cc1
Measurement unit: %
growth inhibition: -23.6

Compound: O=c1cc(CCl)occ1O
Measurement unit: %
growth inhibition: -5.75

Compound: CC(C)/C=C/C1(C(C)C)C(=O)NC(=O)NC1=O
Measurement unit: %
growth inhibition: 14.1

Compound: OC1(c2ccccc2)N=C(c2ccccc2)c2ccccc2-n2cccc21 (centres undefined)
Measurement unit: %
growth inhibition: 0.75

Compound: C=[CH][Sn]([CH]=C)([c]1ccccc1)[c]1ccccc1
Measurement unit: %
growth inhibition: -0.65

Compound: CCN(CC)CCO
Measurement unit: %
growth inhibition: 7.05

Compound: CC(C)OP(=O)(OC(C)C)C(N(C)C)P(=O)(OC(C)C)OC(C)C.[Cl][Sn]([Cl])([Cl])[c]1ccccc1
Measurement unit: %
growth inhibition: 28.8

Compound: COc1cc(C=O)cc(OC)c1OC
Measurement unit: %
growth inhibition: -14.1

Compound: C[C@]12CCC(=O)C=C1CC[C@@H]1[C@@H]2CC[C@]2(C)C(=O)[C@H](n3ccnc3)C[C@@H]12
Measurement unit: %
growth inhibition: 3.2

Compound: CC(C)(C)C1COP(=O)(C(C)(C)C)OC1 (centres undefined)
Measurement unit: %
growth inhibition: -38.6

Compound: Nc1nnc(N)n1N
Measurement unit: %
growth inhibition: -20.3

Compound: CCN(CC)CC(O)c1ccc(Br)cc1 (centres undefined)
Measurement unit: %
growth inhibition: -3.55

Compound: CS(=N)(=O)CCC(N)C(=O)O (centres undefined) (tested in a mixture with another compound)
Measurement unit: %
growth inhibition: -1.95

Compound: CCN1CC2CCC1C2 (centres undefined)
Measurement unit: %
growth inhibition: 5.5

Compound: COc1cc2c(cc1OC)C13CCN4CC5=CCOC6CC(=O)N2C1C6C5CC43O (centres undefined)
Measurement unit: %
growth inhibition: 8.55

Compound: Cc1cc[n+](C)c(Cc2ccccc2)c1C
Measurement unit: %
growth inhibition: -26.1

Compound: NC1CC(O)C(O)CC1c1ccc2c(c1)OCO2 (centres undefined)
Measurement unit: %
growth inhibition: -13.9

Compound: O/N=C(/C(=N/O)c1ccccc1)c1ccccc1.O/N=C(/C(=N/O)c1ccccc1)c1ccccc1.[Ni]
Measurement unit: %
growth inhibition: -21.8

Compound: CCOC(OCC)c1ccccc1.[C-]#[O+].[C-]#[O+].[C-]#[O+].[Cr]
Measurement unit: %
growth inhibition: 13.9

Compound: O=[As](O)(O[As](=O)(O)c1ccccc1)c1ccccc1
Measurement unit: %
growth inhibition: 5

Compound: CCOC(=O)CNCCC1(CC)C(=O)NC(=O)NC1=O
Measurement unit: %
growth inhibition: -37.2

---

# Protocol: NCI Yeast Anticancer Drug Screen. Data for the mec2-1 strain (AID 157)
# Reported conditions: S. cerevisiae mec2-1 strain, at 50.0 µM, stronger effect = higher value
The panel holds about 79,000 compounds, 15% with a hit somewhere; the sample as a whole holds those more often.
Property label: growth inhibition (%)

Compound: C1C[N-]CC[N-]1.C1C[N-]CC[N-]1.[Zn]
Property label: growth inhibition
Measurement unit: %
Observed measurement: 99.5

Compound: ClCCN(CCCl)c1ncnc2c1ncn2Cc1ccccc1
Property label: growth inhibition
Measurement unit: %
Observed measurement: 17.4

Compound: O=C1c2ccccc2C2(O)C3C=CCCN3CN12 (stereo not given)
Property label: growth inhibition
Measurement unit: %
Observed measurement: 9.1

Compound: CC(C(=O)c1ccccc1)N(C)Cc1ccccc1 (stereo not given)
Property label: growth inhibition
Measurement unit: %
Observed measurement: -2.05

Compound: O=S(=O)(F)c1ccccc1
Property label: growth inhibition
Measurement unit: %
Observed measurement: -0.6

Compound: ClCCN(CCCl)c1ccc(CCCCN2CCCCC2)cc1
Property label: growth inhibition
Measurement unit: %
Observed measurement: 23.2

Compound: N#CC(C#N)=Cc1ccccc1O
Property label: growth inhibition
Measurement unit: %
Observed measurement: -2.35

Compound: Cc1ccc(OP(=O)(Oc2ccc(C)cc2)Oc2ccc(C)cc2)cc1.Cc1ccc(OP(=O)(Oc2ccc(C)cc2)Oc2ccc(C)cc2)cc1.Cc1ccc(OP(=O)(Oc2ccc(C)cc2)Oc2ccc(C)cc2)cc1.Cc1ccc(OP(=O)(Oc2ccc(C)cc2)Oc2ccc(C)cc2)cc1.[Cr+3].[O-][Cl+3]([O-])([O-])O
Property label: growth inhibition
Measurement unit: %
Observed measurement: -2.2

Compound: CCCCOP(=S)(OCCCC)Oc1ccc(Cl)cc1Cl
Property label: growth inhibition
Measurement unit: %
Observed measurement: -41.4

Compound: Cc1ccc(C)c(C(C)NC2=NCCO2)c1 (stereo not given)
Property label: growth inhibition
Measurement unit: %
Observed measurement: -7.95

---

# Protocol: NCI Yeast Anticancer Drug Screen. Data for the cln2 rad14 strain (AID 165);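 note: 0% = growth equal to vehicle treated cultures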
# Reported conditions: S. cerevisiae cln2 rad14 strain, at 50.0 µM, stronger effect = higher value
# Protocol: Growth inhibition of yeast strains with defined genetic alterations is measured as a screen for potential anti-cancer activity. Selected strains with alterations in DNA damage repair or cell cycle control were exposed to compounds and growth inhibition was measured relative to vehicle treated controls. The strain used in this assay is cln2 rad14
The panel holds about 79,000 compounds, 15% with a hit somewhere; the sample as a whole holds those more often. Active and inactive are the calls of the source. No stated cut-off is given here; in the data, active means growth inhibition above about 70%; inactive means the rest.
# growth inhibition values compiled below

Compound: CC(=O)OC1CC2(C)C(=CC1C1SCCS1)CCC1C2CCC2(C)C(OC(C)=O)CCC12 (stereo not given)
growth inhibition: 14.7% (inactive)

Compound: CCCCCCCCCNP(=O)(OCc1ccccc1)N(CCCl)CCCl (stereo not given)
growth inhibition: 34.8% (inactive)

Compound: CN1CCCC(C(=O)c2ccccc2)C1 (stereo not given)
growth inhibition: -18.9% (inactive)

Compound: O=[C-]CC(=O)c1ccccc1.O=[C-]CC(=O)c1ccccc1.[Fe+2]
growth inhibition: 12% (inactive)

Compound: C=CCSc1nc2ccccc2c(=O)n1-c1cc(OC)c(Cl)cc1OC
growth inhibition: 8.45% (inactive)

Compound: N#CC(C#N)C1CN2CCC1CC2 (stereo not given)
growth inhibition: 24.5% (inactive)

Compound: CC(Br)CN(CC(C)Br)c1ccc(-c2ccccc2)cc1 (stereo not given)
growth inhibition: 35.7% (inactive)

Compound: CN(C)C(=O)C(CC[N+](C)(C)C)(c1ccccc1)c1ccccc1
growth inhibition: 24.7% (inactive)

Compound: [Fe+2].[c-]1[c-][c-][cH-][c-]1.[c-]1[c-][c-][cH-][c-]1.c1cc[c]([Pb]([c]2ccccc2)[c]2ccccc2)cc1
growth inhibition: 65.5% (inactive)

Compound: O=C1NC(=O)C(Cc2cccc(OCc3ccccc3)c2)C(=O)N1
growth inhibition: 5.1% (inactive)

Compound: CCOP(=O)(O)SP(=O)(O)OCC.[Zn+2]
growth inhibition: 2.9% (inactive)

Compound: O=C(Sc1c[nH]c(=O)[nH]c1=O)c1ccc(N(CCCl)CCCl)cc1
growth inhibition: -24.8% (inactive)

Compound: ClCCN(CCCl)CC(Cl)COc1cccc2ccccc12 (stereo not given)
growth inhibition: -1.6% (inactive)

Compound: O=S(=O)(F)c1cc(Cl)c(O)c(S(=O)(=O)F)c1
growth inhibition: 3.65% (inactive)

Compound: CCCCCCNC(=O)CBr
growth inhibition: 3.4% (inactive)

Compound: O=[N+]([O-])c1ccc(N=Nc2ccc(N(CCCl)CCCl)cc2)cc1
growth inhibition: -14.9% (inactive)

Compound: CCC(=O)[O][Sn]([CH3])([CH3])[O][Sn]([CH3])([CH3])[O]C(=O)CC
growth inhibition: 11.8% (inactive)

Compound: CC1(C)c2ccccc2C(c2ccccc2)(c2ccccc2)[N+]1(C)C
growth inhibition: 21.7% (inactive)

Compound: N#CC(C#N)=Cc1cccc(F)c1
growth inhibition: 15.6% (inactive)

Compound: [N-]=[N+]=CC(=O)C1(C(=O)C=[N+]=[N-])CC1
growth inhibition: -18.1% (inactive)

Compound: COc1ccc(N)cc1OC
growth inhibition: -12.2% (inactive)

Compound: CC([OH2+])CNCCN.CC([OH2+])CNCCN.O=[N+]([O-])[O-].[Cu+2] (stereo not given)
growth inhibition: -39.6% (inactive)

Compound: O=C(CCBr)Nc1ccc(Cl)cc1C(=O)c1ccccc1
growth inhibition: -2% (inactive)

Compound: CC(=N/O)/C(C)=N\O
growth inhibition: 13.4% (inactive)

Compound: COC(=O)C1C(C)N1P(=O)(OC)OC (stereo not given)
growth inhibition: -44% (inactive)

Compound: COc1ccc(OP2OCC(C)O2)cc1 (stereo not given)
growth inhibition: -30% (inactive)

Compound: O=C(O)C(=O)O.[NH2-].[NH2-].[Pt+2]
growth inhibition: -5.05% (inactive)

Compound: CCCCCCCCCCCCCCCCCC(=O)[O][Pb]([CH3])([CH3])[CH3]
growth inhibition: 21.6% (inactive)

Compound: CCNC(=O)Oc1c(Cl)cc(S(=O)(=O)F)cc1Cl
growth inhibition: 12.5% (inactive)

Compound: CCOP(=O)(OCC)O/N=C(/c1ccccc1)C(C)C
growth inhibition: 10.3% (inactive)

Compound: NNN1CCN(N)CC1
growth inhibition: -8.35% (inactive)

Compound: CC(=O)N(C)C(=O)Oc1cccc2ccccc12
growth inhibition: -34.2% (inactive)

Compound: CC(=O)c1ccccc1N=Nc1ccc(N(CCCl)CCCl)cc1C
growth inhibition: 0.95% (inactive)

Compound: Oc1ccc(O)c(Br)c1
growth inhibition: -21.3% (inactive)

Compound: C[N+]12CCC(c3ccccc3)(CC1)C(O)C2 (stereo not given)
growth inhibition: -5.15% (inactive)

Compound: CCCOC(=O)CCl
growth inhibition: 5.25% (inactive)

Compound: COP(=S)(c1ccccc1)N(C)C(=O)Oc1cccc(C(C)C)c1 (stereo not given)
growth inhibition: 25.8% (inactive)

Compound: O=C(CN1C(=O)C2CCCCC2C1=O)N1CC1 (stereo not given)
growth inhibition: 5.85% (inactive)

Compound: CC1=CC2OC3CC4OC(=O)/C=C/C=C/C(=O)OCC/C(C)=C/C(=O)OCC2(CC1O)C4(C)C31CO1 (stereo not given)
growth inhibition: 91.7% (active)

Compound: Nn1cnnc1
growth inhibition: -9.35% (inactive)

Compound: CC(=O)[CH-]C(C)=O.CC(=O)[CH-]C(C)=O.CC(=O)[CH-]C(C)=O.CCC(=O)O.[Zn+2].[Zn]
growth inhibition: -38% (inactive)

Compound: CCCCCCCCCCCCCCCC(=O)[O][Hg][c]1ccccc1
growth inhibition: 98.1% (active)

Compound: ClCc1ccccc1
growth inhibition: -19.7% (inactive)

Compound: N#CCc1ccccc1.N#CCc1ccccc1.[C-]#[O+].[C-]#[O+].[C-]#[O+].[C-]#[O+].[W]
growth inhibition: -33.2% (inactive)

Compound: CN1CCN(C)C12C=c1ccccc1=CC21CC1
growth inhibition: -2.65% (inactive)

Compound: Nc1noc(N)n1
growth inhibition: -23.1% (inactive)

Compound: Nc1nc(=S)nc(N)[nH]1
growth inhibition: -18.5% (inactive)

Compound: O=S(OO)c1cc(Cl)c(O)c(Cl)c1 (stereo not given)
growth inhibition: 7.55% (inactive)

Compound: Fc1ccccc1N=C=S
growth inhibition: 18.1% (inactive)

Compound: Cc1c([As](=O)(O)O)ccc2nc3c(C)c([As](=O)(O)O)ccc3nc12
growth inhibition: 9.25% (inactive)

# credit: PubChem BioAssay (NCI)
